# targetEntity: T1, Grb7-SH2 R462S, GST fusion (residues 415-532) (UniProt Q14451 415-532, R462S)
# T1 construct: Made by site-directed mutagenesis of the wild-type construct; primers in Supplementary Material; also called R462S Grb7-SH2; R462S mutant
# T1 sequence (Q14451 415-532 R462S): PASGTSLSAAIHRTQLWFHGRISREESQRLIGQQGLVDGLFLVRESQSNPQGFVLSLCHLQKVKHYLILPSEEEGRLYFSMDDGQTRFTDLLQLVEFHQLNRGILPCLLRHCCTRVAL
# protocolNotes: SPR; Biacore T100, CM5 chip; GST-SH2 fusion captured by amine-coupled anti-GST antibody, GST alone on the reference cell; G7-18NATE injected 60 s at 30 μL/min in 150 mM NaPO4, 150 mM NaCl, 1 mM DTT, pH 7.4; equilibrium responses fitted by a single-site binding model
# conditionLabel: both partners purified
Bridges are numbered along the chain shown (N, C = ends).
observationType: pKd
Answers are plain numbers, as −log10 of the molar value.

Request: Give the value of pKd reported for the following: {CH2CO}-WFEGYDNTFPC-NH2 (thioether N-11, cyclic peptide developed via phage display against the Grb7-SH2 domain; Purity >95% by LC-MS; source: synthetic peptide (standard Fmoc-chemistry), bought: Purar Chemicals (Australia)) [G7-18NATE (cyclo-(CH2CO-WFEGYDNTFPC)-amide)]
Result: 5.10
